target: recombinant human TFPI (tissue factor pathway inhibitor) (human, UniProt P10646 29-304); test: cell-based or functional assay
metricName: effect of inhibiting TFPI, FXa activity assay, Ab 10 nM

- binder: "clone 1123 (antibody, V domains shown) VH: EVQLVESGGGLVKPGGSLRLSCAASGFTFSSYAMNWVRQAPGKGLEWVSTITTGGSHTYYADSVEGRFTISRDNAKNSLYLQMNSLRAEDTAVYYCARQDGHFLMDYWGQGTLVTVSS VL: DVVMTQTPLSLPVTLGQPASISCKSSQSLLDIDGKTYLNWLQQRPGQSPKRLIYLVSKLDSGVPDRFTGSGSGTDFTLKISRVEAEDVGVYYCWQGTHFPFTFGQGTKVEIKR"
  result: "~69%"

Please look at the items below and tell me effect of inhibiting TFPI, FXa activity assay, Ab 10 nM for each one, in order.
1. clone 1023 (antibody, V domains shown, scFv on yeast at selection; human IgG4/kappa IgG as purified) VH: EVQLVESGGGLVKPGGSLRLSCAASGFTFSSYAMNWVRQAPGKGLEWVGTITTGGSYTYYADSVDGRFTISRDNAKNSLYLQMNSLRAEDTAVYYCARQDGNFLMDYWGQGTLVTVSS VL: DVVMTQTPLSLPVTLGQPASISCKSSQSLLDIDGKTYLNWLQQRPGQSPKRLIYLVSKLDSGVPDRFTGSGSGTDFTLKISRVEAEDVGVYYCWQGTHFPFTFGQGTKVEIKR
2. clone 1202 (antibody, V domains shown, scFv on yeast at selection; human IgG4/kappa IgG as purified; also called No. 1202 antibody) VH: EVQLVESGGGLVKPGGSLRLSCAASGFTFSSYAMNWVRQAPGKGLEWVGTITTGGSYTYYADSVDGRFTISRDNAKNSLYLKMNSLRAEDTAVYYCARQDGNFLMDYWGQGTLVTVSS VL: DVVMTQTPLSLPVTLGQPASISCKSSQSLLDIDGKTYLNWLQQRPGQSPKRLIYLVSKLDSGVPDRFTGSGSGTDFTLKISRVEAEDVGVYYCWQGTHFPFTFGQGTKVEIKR

[A]
["~84%", "~82%"]
